This collection of values is drawn from ChEMBL document CHEMBL1156487.

Please respond with reported max activation for every item in the list.
# System: Oocyte
# assayOverview: Activity at rat […] GABAA alpha-1V202Cbeta-2-gamma-2 mutant receptor expressed in xenopus oocytes assessed as GABA-elicited response by two electrode voltage clamp method relative to control
# Assay type: cell-based
// return the numeric value with its unit appended

# input Provide measured max activation value, entry: CCOC(=O)c1ncn2c1CN(C)C(=O)c1cc(F)ccc1-2
# output 1%

# input For CCOC(=O)c1ncn2c1CN(C)C(=O)c1cc(N=C=S)ccc1-2 , write its max activation.
# output 16%

# input Supply measured max activation of Cc1ccc(-c2nc3ccc(C)cn3c2CC(=O)N(C)C)cc1 in your reply.
# output 369%

# input Tell me measured max activation for CCOC(=O)c1ncn2c1CN(C)C(=O)c1cc(N=[N+]=[N-])ccc1-2 please.
# output 9%

====

# Test system: Oocyte
# assayOverview: Activity at rat […] GABAA alpha-1V211Cbeta-2-gamma-2 mutant receptor expressed in xenopus oocytes assessed as GABA-elicited response by two electrode voltage clamp method relative to control
# Assay type: cell-based
Please provide measured max activation for the entries that follow.

# input // fetch max activation; item: Cc1ccc(-c2nc3ccc(C)cn3c2CC(=O)N(C)C)cc1 ; system: Oocyte
# output 127%

# input With Oocyte as the test system, provide measured max activation for this molecule: CCOC(=O)c1ncn2c1CN(C)C(=O)c1cc(N=[N+]=[N-])ccc1-2
# output -23%

# input Supply max activation measured with Oocyte for CCOC(=O)c1ncn2c1CN(C)C(=O)c1cc(N=C=S)ccc1-2 .
# output > 140%

# input Determine reported max activation for CCOC(=O)c1ncn2c1CN(C)C(=O)c1cc(F)ccc1-2 ; test system: Oocyte.
# output 5%

====

Exercise: for every item that follows, state its recorded pEC50.
# assayOverview: Activity at rat […] GABAA alpha-1V211Cbeta-2-gamma-2 mutant receptor expressed in xenopus oocytes assessed as GABA-elicited response by two electrode voltage clamp method relative to control
# Assay type: cell-based
# testSettings: Oocyte
API: returns pEC50 as number; meaning -log10 of concentration in mol/L.

# input Please supply the value of reported pEC50 for the item Cc1ccc(-c2nc3ccc(C)cn3c2CC(=O)N(C)C)cc1 [ZOLPIDEM]
# output 6.47

# input State its pEC50: CCOC(=O)c1ncn2c1CN(C)C(=O)c1cc(N=[N+]=[N-])ccc1-2 [Ro-154513]
# output 7.36

====

# System: Oocyte
# assayOverview: Activity at rat […] GABAA alpha-1H101Cbeta-2-gamma-2 mutant receptor expressed in xenopus oocytes assessed as GABA-elicited response by two electrode voltage clamp method relative to control
# Format: cell-based
quantityMeasured: max activation (%)
Answer with a number only, understood to be in %.

# input // Input: CCOC(=O)c1ncn2c1CN(C)C(=O)c1cc(N=[N+]=[N-])ccc1-2 . Output its max activation only.
# output 40

# input Answer with the recorded max activation for the compound listed here: Cc1ccc(-c2nc3ccc(C)cn3c2CC(=O)N(C)C)cc1
# output 162

# input Return value of max activation for input CCOC(=O)c1ncn2c1CN(C)C(=O)c1cc(N=C=S)ccc1-2 , no commentary.
# output 90

# input Hello, please tell me recorded max activation for this one: CCOC(=O)c1ncn2c1CN(C)C(=O)c1cc(F)ccc1-2
# output 22

====

Can you tell me max activation for the items I'm about to list?
# Tested on: Oocyte
# assayOverview: Activity at rat […] GABAA alpha-1G157Cbeta-2-gamma-2 mutant receptor expressed in xenopus oocytes assessed as GABA-elicited response by two electrode voltage clamp method relative to control
# Type: cell-based
Output spec: scalar in %, unitless text.

# input Would you please give the reported max activation of CCOC(=O)c1ncn2c1CN(C)C(=O)c1cc(F)ccc1-2 [FLUMAZENIL] with Oocyte?
# output -2

# input Fill in max activation for CCOC(=O)c1ncn2c1CN(C)C(=O)c1cc(N=[N+]=[N-])ccc1-2 [Ro-154513] tested with Oocyte.
# output 36

# input Report the value of max activation obtained on Oocyte for CCOC(=O)c1ncn2c1CN(C)C(=O)c1cc(N=C=S)ccc1-2 .
# output 30

# input Param request: max activation | system Oocyte | item Cc1ccc(-c2nc3ccc(C)cn3c2CC(=O)N(C)C)cc1 [ZOLPIDEM]
# output 427
